Target under test: PFD1235w DBLβ3_D4, wild type (P. falciparum 3D7)
Procedure details: SPR
Quantity name: Kd (nM)
Field format: number, assumed nM, no unit text.

Query :: Quick one: Kd of ICAM-1_D1 (domain or fragment) QTSVSPSKVILPRGGSVLVTCSTSCDQPKLLGIETPLPKKELLLPGNNRKVYELSNVQEDSQPMCYSNCPDGQSTAKTFLTVYWT ?
Result :: 2.34
